test system: HIV-1; assay: in vitro anti-HIV screening (NCI XTT soluble-formazan assay, protection of HIV-1-infected CEM T4 lymphocytes from cytolysis); format: cell-based; settings: Human immunodeficiency virus 1, CCRF-CEM; 2.00 × 10^-5 Molar; read-out: Percent of Protection
assay.readout: inhibition at 20 µM (%)
Quick reminder: number only, in %, skip the unit.

# input compound: O=C([O-])c1c(O)ccc(O)c1C(=O)Nc1ccc(C=Cc2ccc(NC(=O)c3c(O)ccc(O)c3C(=O)[O-])cc2S(=O)(=O)O)c(S(=O)(=O)O)c1.[Na+].[Na+] [Compound 29, disodium salt] ; wanted: its inhibition at 20 µM
83.3

What does the record list as inhibition at 20 µM for O=C(O)CCSCc1cc(C(=O)Nc2ccc(C=Cc3ccc(NC(=O)c4cc(CSCCC(=O)O)c5cccnc5c4O)cc3S(=O)(=O)O)c(S(=O)(=O)O)c2)c(O)c2ncccc12 ?
67.5

Endpoint output: inhibition at 20 µM of O=C(Nc1ccc(C=Cc2ccc(NC(=O)c3cc(S(=O)(=O)O)c4cccnc4c3O)cc2S(=O)(=O)O)c(S(=O)(=O)O)c1)c1cc(S(=O)(=O)O)c2cccnc2c1O . Value?
107

Give its inhibition at 20 µM value. Item: O=C(O)CSCc1cc(C(=O)Nc2ccc(C=Cc3ccc(NC(=O)c4cc(CSCC(=O)O)c5cccnc5c4O)cc3S(=O)(=O)O)c(S(=O)(=O)O)c2)c(O)c2ncccc12
16.6

====

tested on: HIV-1; test: in vitro anti-HIV screening (NCI XTT soluble-formazan assay, protection of HIV-1-infected CEM T4 lymphocytes from cytolysis); assay type: cell-based; settings: Human immunodeficiency virus 1, CCRF-CEM; 2.00 × 10^-6 Molar; read-out: Percent of Protection
Provide the recorded inhibition at 2 µM for the entries that follow.
Kindly answer with a numeric value in %, unit omitted.

Give inhibition at 2 µM (HIV-1) of the following molecule: O=C(O)CCSCc1cc(C(=O)Nc2ccc(C=Cc3ccc(NC(=O)c4cc(CSCCC(=O)O)c5cccnc5c4O)cc3S(=O)(=O)O)c(S(=O)(=O)O)c2)c(O)c2ncccc12 [Compound 13]
84.4

Give recorded inhibition at 2 µM with HIV-1 for the following molecule: O=C(O)CSCc1cc(C(=O)Nc2ccc(C=Cc3ccc(NC(=O)c4cc(CSCC(=O)O)c5cccnc5c4O)cc3S(=O)(=O)O)c(S(=O)(=O)O)c2)c(O)c2ncccc12 [Compound 14]
147

HIV-1 / inhibition at 2 µM / O=C(Nc1ccc(C=Cc2ccc(NC(=O)c3cc(S(=O)(=O)O)c4cccnc4c3O)cc2S(=O)(=O)O)c(S(=O)(=O)O)c1)c1cc(S(=O)(=O)O)c2cccnc2c1O [Compound 1] : value?
68.6

Could you share what inhibition at 2 µM was measured for O=C([O-])c1c(O)ccc(O)c1C(=O)Nc1ccc(C=Cc2ccc(NC(=O)c3c(O)ccc(O)c3C(=O)[O-])cc2S(=O)(=O)O)c(S(=O)(=O)O)c1.[Na+].[Na+] [Compound 29, disodium salt] , tested on HIV-1?
0.58

====

Task for the reader: assign each of the following molecules its reported inhibition at 0.2 µM.
test system: HIV-1; test: in vitro anti-HIV screening (NCI XTT soluble-formazan assay, protection of HIV-1-infected CEM T4 lymphocytes from cytolysis); type: cell-based; conditions: Human immunodeficiency virus 1, CCRF-CEM; 2.00 × 10^-7 Molar; read-out: Percent of Protection
Your answer should be a plain number; it is taken to be in %.

What does the data say about its inhibition at 0.2 µM? Entry: O=C(O)CSCc1cc(C(=O)Nc2ccc(C=Cc3ccc(NC(=O)c4cc(CSCC(=O)O)c5cccnc5c4O)cc3S(=O)(=O)O)c(S(=O)(=O)O)c2)c(O)c2ncccc12
17.6

Fill in: inhibition at 0.2 µM of O=C(O)CCSCc1cc(C(=O)Nc2ccc(C=Cc3ccc(NC(=O)c4cc(CSCCC(=O)O)c5cccnc5c4O)cc3S(=O)(=O)O)c(S(=O)(=O)O)c2)c(O)c2ncccc12 is ___
-17.9

Find the recorded inhibition at 0.2 µM belonging to O=C([O-])c1c(O)ccc(O)c1C(=O)Nc1ccc(C=Cc2ccc(NC(=O)c3c(O)ccc(O)c3C(=O)[O-])cc2S(=O)(=O)O)c(S(=O)(=O)O)c1.[Na+].[Na+] [Compound 29, disodium salt] and report it.
-1.09

Dear colleague, I am looking for the recorded inhibition at 0.2 µM of the following molecule: O=C(Nc1ccc(C=Cc2ccc(NC(=O)c3cc(S(=O)(=O)O)c4cccnc4c3O)cc2S(=O)(=O)O)c(S(=O)(=O)O)c1)c1cc(S(=O)(=O)O)c2cccnc2c1O
5.09
